viscosity reference
recorded conditions: 303.15 K; 101 kPa; Liquid; Capillary tube (Ostwald / Ubbelohde) method
Numbers after ± are expanded uncertainties.

Example molecules with recorded viscosity:
molecule	test result
CCO	0.97 ± 0.02 mPa·s
NCCNCCO	71.64 ± 1.6 mPa·s
CC(O)CN (stereo not given)	17.87 ± 0.39 mPa·s

Input: Please report the recorded viscosity for NCCCO .
Output: 24.03 ± 0.52 mPa·s

Input: Query NCCNCCN next
Output: 4.79 ± 0.1 mPa·s

* * *

recorded conditions: 323.15 K; 101 kPa; Liquid; Vibrating tube method
Entries and their measured mass density follow.
State the answer as a number, implicitly in kg/m3.

compound	readout units	mass density
NCCCO	kg/m3	963.36
NCCNCCN	kg/m3	925.42
NCCNCCO	kg/m3	1006.54

Input: Quick check: mass density of CCO ?
Output: 765.29

Input: What about this compound? CC(O)CN (stereo not given)
Output: 936.21

* * *

recorded conditions: 303.15 K; 101 kPa; Liquid; Vibrating tube method
Met means recorded mass density is 900 kg/m3 or above; Not met means it is below 900 kg/m3.

Input: Hello, I need to know if CC(O)CN (stereo not given) has measured mass density not below 900 kg/m3. Thanks!
Output: Met

Input: One more molecule: CCO
Output: Not met

Input: Next up: NCCCO
Output: Met

Input: For NCCNCCO then?
Output: Met

Input: Moving on to the next molecule: NCCNCCN
Output: Met

* * *

recorded conditions: 313.15 K; 101 kPa; Liquid; Vibrating tube method
// assign fulfilled if mass density falls strictly below 900 kg/m3, else not fulfilled (ties count as not fulfilled)

Here's what some known entries look like.
compound	group
CC(O)CN (stereo not given) [1-amino-2-propanol]	not fulfilled
NCCNCCN [di(2-aminoethyl)amine]	not fulfilled

Input: Take the compound CCO [ethanol] and say whether its mass density is less than 900 kg/m3.
Output: fulfilled

Input: What do we get for NCCNCCO [N-(2-aminoethyl)ethanolamine] ?
Output: not fulfilled

Input: Could you do the same for NCCCO [3-amino-1-propanol] , please?
Output: not fulfilled

* * *

recorded conditions: 313.15 K; 101 kPa; Liquid; Capillary tube (Ostwald / Ubbelohde) method
List of viscosity values.
Write the number in mPa·s without appending the unit.

Input: Given the entry CC(O)CN (stereo not given) , report its measured viscosity.
Output: 10.79

Input: For NCCNCCO then?
Output: 39.59

* * *

recorded conditions: 323.15 K; 101 kPa; Liquid; Capillary tube (Ostwald / Ubbelohde) method
assay readout: log10 viscosity (log10 of the value in mPa·s)
Give log10 of viscosity, with viscosity taken in mPa·s.

The examples below pair each entry with its known result.
compound	test result
CC(O)CN (stereo not given)	0.84
NCCNCCO	1.37
CCO	-0.16
NCCNCCN	0.41

Continue with the compound presented below.
Input: Need log10 viscosity of NCCCO , thanks.
Output: 1.00

* * *

recorded conditions: 293.15 K; 101 kPa; Liquid; Capillary tube (Ostwald / Ubbelohde) method
assay readout: viscosity (mPa·s)
Report the value in mPa·s with no unit label.

Sample records with viscosity:
compound	viscosity (mPa·s)
NCCNCCN	6.99
CCO	1.17

Input: I have this compound here, NCCNCCO , and I need its recorded viscosity.
Output: 136.19

Input: Moving on to the next compound: NCCCO
Output: 40.26

Input: Next record, please: CC(O)CN (stereo not given)
Output: 30.44

meta.source: the NIST ThermoML archive (doi:10.1021/acs.jced.7b00321)
